Assignment: determine reported collision cross section for the given sequences.
Assay: collision cross section of modified peptide (TIMS, N2, iRT-aligned); higher = larger / more extended gas-phase ion
Conditions: charge state: 2; modification: Trimethyl (K)
Just the number please, in Å², no unit attached.

## Task Read the entry SGFGKFER [_SGFGK(Trimethyl (K))FER_] and write its reported collision cross section.
## Result 339.14

## Task Read the entry VETTVTSLKTK [_VETTVTSLK(Trimethyl (K))TK_] and write its reported collision cross section.
## Result 391.95

## Task Read the entry DTGEKLTVAENEAETK [_DTGEK(Trimethyl (K))LTVAENEAETK_] and write its reported collision cross section.
## Result 443.08

## Task Read the entry DLGKFQVATDALK [_DLGK(Trimethyl (K))FQVATDALK_] and write its reported collision cross section.
## Result 414.1

## Task Read the entry ITGKNQVTATK [_ITGK(Trimethyl (K))NQVTATK_] and write its reported collision cross section.
## Result 375.05

## Task Read the entry ITESVAETAQTIKK [_ITESVAETAQTIK(Trimethyl (K))K_] and write its reported collision cross section.
## Result 451.09

## Task Read the entry YEEIVKEVSTYIK [_YEEIVK(Trimethyl (K))EVSTYIK_] and write its reported collision cross section.
## Result 455.74

## Task Read the entry DAEAAEATAEGALKAEK [_DAEAAEATAEGALK(Trimethyl (K))AEK_] and write its reported collision cross section.
## Result 469.97

## Task Read the entry INNFSADIKDSK [_INNFSADIK(Trimethyl (K))DSK_] and write its reported collision cross section.
## Result 411.01

## Task Read the entry LLFSNTAAQKLR [_LLFSNTAAQK(Trimethyl (K))LR_] and write its reported collision cross section.
## Result 428.25

## Task Read the entry LEQVEKELLR [_LEQVEK(Trimethyl (K))ELLR_] and write its reported collision cross section.
## Result 387.44

## Task Read the entry VNALKNLQVK [_VNALK(Trimethyl (K))NLQVK_] and write its reported collision cross section.
## Result 379.91

## Task Read the entry VFIGNLNTLVVKK [_VFIGNLNTLVVK(Trimethyl (K))K_] and write its reported collision cross section.
## Result 435.19

## Task Read the entry VNIGQGSHPQKVK [_VNIGQGSHPQK(Trimethyl (K))VK_] and write its reported collision cross section.
## Result 405.12

## Task Read the entry YIEIYVQKVNPSR [_YIEIYVQK(Trimethyl (K))VNPSR_] and write its reported collision cross section.
## Result 446.57

## Task Read the entry SPDEAYAIAKK [_SPDEAYAIAK(Trimethyl (K))K_] and write its reported collision cross section.
## Result 381.12

## Task Read the entry TLQKQSVVYGGK [_TLQK(Trimethyl (K))QSVVYGGK_] and write its reported collision cross section.
## Result 405

## Task Read the entry LTEKELAEAASK [_LTEK(Trimethyl (K))ELAEAASK_] and write its reported collision cross section.
## Result 406.14

## Task Read the entry VGTASVLQPVKK [_VGTASVLQPVK(Trimethyl (K))K_] and write its reported collision cross section.
## Result 394.06

## Task Read the entry GEVQVSDKER [_GEVQVSDK(Trimethyl (K))ER_] and write its reported collision cross section.
## Result 366.73

## Task Read the entry SSFAYKDQNENR [_SSFAYK(Trimethyl (K))DQNENR_] and write its reported collision cross section.
## Result 417.36

## Task Read the entry SLGEPAAGEGSAKR [_SLGEPAAGEGSAK(Trimethyl (K))R_] and write its reported collision cross section.
## Result 404.92

====

Experiment: collision cross section of modified peptide (TIMS, N2, iRT-aligned); higher = larger / more extended gas-phase ion
Details: charge state: 2; modification: Butyryl
Entry flag: True if collision cross section reaches 400 Å²; False if it does not.

## Task Please tell me: is the sequence VFIGNLNTLVVKK [_VFIGNLNTLVVK(Butyryl)K_] at or over 400 Å² in terms of collision cross section?
## Result True

## Task Please tell me: is the sequence LDHLAEKFR [_LDHLAEK(Butyryl)FR_] at or over 400 Å² in terms of collision cross section?
## Result False

## Task Please tell me: is the sequence TEVLSPNSKVESK [_TEVLSPNSK(Butyryl)VESK_] at or over 400 Å² in terms of collision cross section?
## Result True

## Task Please tell me: is the sequence KYEEIDNAPEER [_K(Butyryl)YEEIDNAPEER_] at or over 400 Å² in terms of collision cross section?
## Result True

## Task Please tell me: is the sequence VDVEVPDVSLEGPEGKLK [_VDVEVPDVSLEGPEGK(Butyryl)LK_] at or over 400 Å² in terms of collision cross section?
## Result True

## Task Please tell me: is the sequence IHVQSSSDSSDEPAEKR [_IHVQSSSDSSDEPAEK(Butyryl)R_] at or over 400 Å² in terms of collision cross section?
## Result True

## Task Please tell me: is the sequence TVSKVDDFLANEAK [_TVSK(Butyryl)VDDFLANEAK_] at or over 400 Å² in terms of collision cross section?
## Result True

## Task Please tell me: is the sequence SPSDSGYSYETIGKTTK [_SPSDSGYSYETIGK(Butyryl)TTK_] at or over 400 Å² in terms of collision cross section?
## Result True

## Task Please tell me: is the sequence LQLEIDQKK [_LQLEIDQK(Butyryl)K_] at or over 400 Å² in terms of collision cross section?
## Result False

====

Experiment: collision cross section of modified peptide (TIMS, N2, iRT-aligned); higher = larger / more extended gas-phase ion
Details: charge state: 2; modification: GlyGly (K)
Entry flag: Y if collision cross section reaches 400 Å²; N if it does not.

## Task Please tell me: is the sequence TTGFYSGFSEVAEKR [_TTGFYSGFSEVAEK(GlyGly (K))R_] at or over 400 Å² in terms of collision cross section?
## Result Y

## Task Please tell me: is the sequence PSVSTKLISK [_PSVSTK(GlyGly (K))LISK_] at or over 400 Å² in terms of collision cross section?
## Result N

## Task Please tell me: is the sequence IVSGKDYNVTANSK [_IVSGK(GlyGly (K))DYNVTANSK_] at or over 400 Å² in terms of collision cross section?
## Result Y

## Task Please tell me: is the sequence YIEIYVQKVNPSR [_YIEIYVQK(GlyGly (K))VNPSR_] at or over 400 Å² in terms of collision cross section?
## Result Y

## Task Please tell me: is the sequence VFIGNLNTLVVKK [_VFIGNLNTLVVK(GlyGly (K))K_] at or over 400 Å² in terms of collision cross section?
## Result Y

## Task Please tell me: is the sequence ITLSKHQNVQLPR [_ITLSK(GlyGly (K))HQNVQLPR_] at or over 400 Å² in terms of collision cross section?
## Result Y

## Task Please tell me: is the sequence GEVQVSDKER [_GEVQVSDK(GlyGly (K))ER_] at or over 400 Å² in terms of collision cross section?
## Result N

## Task Please tell me: is the sequence SSFAYKDQNENR [_SSFAYK(GlyGly (K))DQNENR_] at or over 400 Å² in terms of collision cross section?
## Result Y

====

Test: collision cross section of modified peptide (TIMS, N2, iRT-aligned); higher = larger / more extended gas-phase ion
Conditions: charge state: 3; modification: GlyGly (K)
MEASURE_NAME: collision cross section (Å²)
Just the number please, in Å², no unit attached.

## Task Read the entry VDIDAPDVSIEGPDAKLK [_VDIDAPDVSIEGPDAK(GlyGly (K))LK_] and write its reported collision cross section.
## Result 499.87

## Task Read the entry SGKFTQQDIDEAK [_SGK(GlyGly (K))FTQQDIDEAK_] and write its reported collision cross section.
## Result 476.61

## Task Read the entry PGGEGPQCEKTTDVK [_PGGEGPQCEK(GlyGly (K))TTDVK_] and write its reported collision cross section.
## Result 492.2

## Task Read the entry TLQKQSVVYGGK [_TLQK(GlyGly (K))QSVVYGGK_] and write its reported collision cross section.
## Result 459.43

## Task Read the entry VETTVTSLKTK [_VETTVTSLK(GlyGly (K))TK_] and write its reported collision cross section.
## Result 459.77

## Task Read the entry LQLEIDQKK [_LQLEIDQK(GlyGly (K))K_] and write its reported collision cross section.
## Result 433

====

Assay: collision cross section of modified peptide (TIMS, N2, iRT-aligned); higher = larger / more extended gas-phase ion
Details: charge state: 3; modification: hydroxyisobutyryl
Entry flag: Met if collision cross section reaches 500 Å²; Not met if it does not.

## Task Please tell me: is the sequence LDHLAEKFR [_LDHLAEK(hydroxyisobutyryl)FR_] at or over 500 Å² in terms of collision cross section?
## Result Not met

## Task Please tell me: is the sequence VLTANSNPSSPSAAKR [_VLTANSNPSSPSAAK(hydroxyisobutyryl)R_] at or over 500 Å² in terms of collision cross section?
## Result Met

## Task Please tell me: is the sequence LTEKELAEAASK [_LTEK(hydroxyisobutyryl)ELAEAASK_] at or over 500 Å² in terms of collision cross section?
## Result Not met

## Task Please tell me: is the sequence IVSGKDYNVTANSK [_IVSGK(hydroxyisobutyryl)DYNVTANSK_] at or over 500 Å² in terms of collision cross section?
## Result Not met

## Task Please tell me: is the sequence FDDTNPEKEEAK [_FDDTNPEK(hydroxyisobutyryl)EEAK_] at or over 500 Å² in terms of collision cross section?
## Result Not met

The reported numbers originate from the supplement of paper PMC10598134.
